# Tested on: BDF1 mice, P329 reticulum cell sarcoma ip, survival T/C
# ASSAY NOTES: NCI In Vivo Anticancer Drug Screen. Data for tumor model P329 Reticulum Cell Sarcoma (intraperitoneal) in B6D2F1 (BDF1) mice
# TEST PARAMETERS: endpoint: median survival time; dose: 20.0 mg/kg/injection; schedule: Q01DX010 (ip); vehicle: saline; higher = longer survival
Toxic doses and inconclusive results are not listed.
Below, each of the molecules is paired with its reported T/C value.
EXPERIMENTAL ENDPOINT: T/C

| MOLECULE | RESULT |
| --- | --- |
| Cn1c(N)nc2nc[nH]c2c1=S | 106 % of control |
| O=c1[nH]c(=O)n(C2CC(O)C(CO)O2)cc1F (centres undefined) | 123 % of control |
| CC[n+]1c(-c2ccccc2)c2cc(N)ccc2c2ccc(N)cc21 | 107 % of control |
| N=C(N)SCc1c2ccccc2c(CSC(=N)N)c2ccccc12 | 118 % of control |

---

# Test system: BDF1 mice, P329 reticulum cell sarcoma ip, survival T/C
# ASSAY NOTES: NCI In Vivo Anticancer Drug Screen. Data for tumor model P329 Reticulum Cell Sarcoma (intraperitoneal) in B6D2F1 (BDF1) mice
# TEST PARAMETERS: endpoint: median survival time; dose: 12.5 mg/kg/injection; schedule: Q01DX010 (ip); vehicle: saline; higher = longer survival
Toxic doses and inconclusive results are not listed.
Below, each of the molecules is paired with its reported T/C value.
EXPERIMENTAL ENDPOINT: T/C

| SMI | RESULT |
| --- | --- |
| O=NN(CCCl)C(=O)NCCCl | 103 % of control |
| C[C@H]1C(=O)O[C@@H]2CCN3CC=C(COC(=O)[C@](C)(O)[C@@]1(C)O)[C@H]23 | 103 % of control |
| COc1cc(-c2ccc(Nc3ccccc3C(=O)O)c(OC)c2)ccc1Nc1ccccc1C(=O)O | 100 % of control |
| COS(C)(=O)=O | 100 % of control |
| CC/C(=C(/CC)c1ccc(O)cc1)c1ccc(O)cc1 | 107 % of control |

---

# Test system: BDF1 mice, P329 reticulum cell sarcoma ip, survival T/C
# ASSAY NOTES: NCI In Vivo Anticancer Drug Screen. Data for tumor model P329 Reticulum Cell Sarcoma (intraperitoneal) in B6D2F1 (BDF1) mice
# TEST PARAMETERS: endpoint: median survival time; dose: 100.0 mg/kg/injection; schedule: Q01DX010 (ip); vehicle: saline
# Procedure: The antitumor activity of compounds was measured in mice bearing transplantable tumors. Survival or tumor size were measured and the results are expressed as the measurement made in the treated group (T) divided by the measurement made in the vehicle treated control group (C). The tumor model used in this assay is P329 Reticulum Cell Sarcoma (intraperitoneal) in B6D2F1 (BDF1) mice
Inconclusive results and toxic doses are left out. The calls were made as follows: active = survival T/C of 150% or more; inactive = T/C below 125% in these data.
Outcome codes: yes for active, no for inactive

| COMPOUND | QUALITATIVE LABEL |
| --- | --- |
| CCN(CC)CCNc1ccc(C)c2sc3ccccc3c(=O)c12 | no |
| CS(=O)(=O)OCC(O)C(O)C(O)C(O)COS(C)(=O)=O (stereo unspecified) | no |
| CN(C)/N=N/c1nc[nH]c1C(N)=O | yes |
| COc1cc(-c2ccc(Nc3ccccc3C(=O)O)c(OC)c2)ccc1Nc1ccccc1C(=O)O | no |
| CC/C(=C(/CC)c1ccc(O)cc1)c1ccc(O)cc1 | no |
| C#CCN(C)Cc1ccccc1 | no |

---

# Test system: BDF1 mice, P329 reticulum cell sarcoma ip, survival T/C
# ASSAY NOTES: NCI In Vivo Anticancer Drug Screen. Data for tumor model P329 Reticulum Cell Sarcoma (intraperitoneal) in B6D2F1 (BDF1) mice
# TEST PARAMETERS: endpoint: median survival time; dose: 10.0 mg/kg/injection; schedule: Q01DX010 (ip); vehicle: saline
Inconclusive results and toxic doses are left out. The calls were made as follows: active = survival T/C of 150% or more; inactive = T/C below 125% in these data.
Outcome codes: 1 (yes) = active, 0 (no) = inactive

| COMPOUND | QUALITATIVE LABEL |
| --- | --- |
| N#[N+]c1cnc([O-])[nH]c1=O | 0 (no) |
| NC(Cc1ccc(N(CCCl)CCCl)cc1)C(=O)O (stereo unspecified) | 1 (yes) |
| Cn1c(N)nc2nc[nH]c2c1=S | 0 (no) |
| Cc1cc(N(CCCl)CCCl)ccc1N=Nc1ccccc1C(=O)O | 0 (no) |
| Cn1cnc([N+](=O)[O-])c1Sc1nc(N)nc2nc[nH]c12 | 0 (no) |
| N=C(N)SCc1c2ccccc2c(CSC(=N)N)c2ccccc12 | 0 (no) |
